Source listed as patent EP3225590A1.

# target system: ANR-Y1
# experiment: Fluorescence titration of ANR-Y1 suspension with analyte, 1:1 single-site binding fit
# condition summary: ANR-Y1 250 µg/mL, 10 mM HEPES buffer (pH 7.3); read-out: single site dissociation constant Kd
pKd: −log10 of the molar value.
endpoint: pKd

Query :: Reported pKd, compound NC(=O)[C@@H](N)Cc1c[nH]c2ccccc12 [TrpNH2] : ____
Result :: ~6.96

---

# target system: ANR-Y1
# experiment: Fluorescence titration of ANR-Y1 suspension with analyte, 1:1 single-site binding fit
# condition summary: read-out: approximated dissociation constant (Kd = 1/slope), Stern-Volmer plot; ANR-Y1
endpoint: Kd (µM)
Response body: numeric value in µM, unit text excluded.

Query :: May I ask what Kd has been recorded for "NCCc1ccc(O)c(O)c1" ?
Result :: 4

---

# target system: ANR-Y1
# experiment: Fluorescence titration of ANR-Y1 suspension with analyte, 1:1 single-site binding fit
# condition summary: pH 7.3; read-out: Kd(ANR-Y1)
endpoint: pKd
# pKd = -log10(concentration in molar units)

Query :: What value of pKd has been reported for the following molecule? CNC[C@H](O)c1ccc(O)c(O)c1 [epinephrine]
Result :: 4.59

---

compounds and their reported pKd
# target system: ANR-L1
# experiment: Fluorescence titration of ANR-L1 suspension with analyte, 1:1 single-site binding fit
# condition summary: 10 mM HEPES buffer (pH 7.3), ANR 250 µg/mL; >> = less than 10% change in emission intensity at >50 molar excess of analyte; error less than ±20%; read-out: Kd(ANR-L1)
pKd: −log10 of the molar value.

>>> reported_result("NC[C@H](O)c1ccc(O)c(O)c1 [norepinephrine]")
4.51

Query :: State the recorded pKd for this entry: "Oc1ccccc1O"
Result :: < 3.00

Query :: Consider the compound "CC(=O)OCC[N+](C)(C)C" and give its measured pKd.
Result :: < 3.00

Query :: Consider the compound shown here: "NCCc1ccc(O)c(O)c1" What is its recorded pKd?
Result :: 4.80

---

# target system: ANR-L1
# experiment: Fluorescence titration of ANR-L1 suspension with analyte, 1:1 single-site binding fit
# condition summary: 10 mM HEPES buffer (pH 7.3), ANR 250 µg/mL; >> = less than 10% change in emission intensity at >50 molar excess of analyte; error less than ±20%; read-out: Kd(ANR-L1)
pKd: −log10 of the molar value.
endpoint: pKd

Worked cases, answers included:
>>> reported_result("NCCc1c[nH]c2ccc(O)cc12")
5.48
>>> reported_result("NCC(=O)O")
"< 3.00"
>>> reported_result("N[C@@H](Cc1ccc(O)cc1)C(=O)O")
"< 3.00"
>>> reported_result("CNC[C@H](O)c1cccc(O)c1")
"< 3.22"

Now consider the entry below.
Query :: Lab note: need pKd with ANR-L1 for entry "N[C@H](CO)C(=O)O" , please look it up.
Result :: < 3.00

---

pKd by entry:
# target system: ANR-L1
# experiment: Fluorescence titration of ANR-L1 suspension with analyte, 1:1 single-site binding fit
# condition summary: 10 mM HEPES buffer (pH 7.3), ANR 250 µg/mL; >> = less than 10% change in emission intensity at >50 molar excess of analyte; error less than ±20%; read-out: Kd(ANR-L1)
pKd: −log10 of the molar value.

Answered examples (4):
>>> reported_result("N[C@@H](Cc1ccccc1)C(=O)O [phenylalanine]")
"< 3.00"
>>> reported_result("CC(=O)Nc1ccc(O)cc1 [paracetamol]")
"< 3.00"
>>> reported_result("c1ccc2[nH]ccc2c1 [indole]")
"< 3.00"
>>> reported_result("NCCCCCN [cadaverine]")
"< 3.00"

Query :: Returns the measured pKd for the input compound. Input: Nc1ncnc2c1ncn2[C@@H]1O[C@H](CO)[C@@H](O)[C@H]1O [adenosine]
Result :: < 3.00

Query :: Look up pKd: NCCc1ccc(O)cc1 [tyramine]
Result :: 4.57

Query :: Value lookup for pKd; key = NCC(O)c1ccc(O)cc1 (centres unmarked) [octopamine]
Result :: 4.40

Query :: Request the reported pKd associated with N[C@@H](CCC(=O)O)C(=O)O [glutamate]
Result :: < 3.00
